B1: Tyrosine-protein phosphatase non-receptor type 1 (Homo sapiens), P18031 (parent)
chain: MEMEKEFEQIDKSGSWAAIYQDIRHEASDFPCRVAKLPKNKNRNRYRDVSPFDHSRIKLHQEDNDYINASLIKMEEAQRSYILTQGPLPNTCGHFWEMVWEQKSRGVVMLNRVMEKGSLKCAQYWPQKEEKEMIFEDTNLKLTLISEDIKSYYTVRQLELENLTTQETREILHFHYTTWPDFGVPESPASFLNFLFKVRESGSLSPEHGPVVVHCSAGIGRSGTFCLADTCLLLMDKRKDPSSVDIKKVLLEMRKFRMGLIQTADQLRFSYLAVIEGAKFIMGDSSVQDQWKELSHEDLEPPPEHIPPPPRPPKRILEPHNGKCREFFPNHQWVKEETQEDKDCPIKEEKGSPLNAAPYGIESMSQDTEVRSRVVGGSLRGAQAASPAKGEPSLPEKDEDHALSYWKPFLVNMCVATVLTAGAYLCYRFLFNSNT

Variants of: B1
Conditions: with cadh2_chick CDH2, P10288
Sequence (P10288 whole entry): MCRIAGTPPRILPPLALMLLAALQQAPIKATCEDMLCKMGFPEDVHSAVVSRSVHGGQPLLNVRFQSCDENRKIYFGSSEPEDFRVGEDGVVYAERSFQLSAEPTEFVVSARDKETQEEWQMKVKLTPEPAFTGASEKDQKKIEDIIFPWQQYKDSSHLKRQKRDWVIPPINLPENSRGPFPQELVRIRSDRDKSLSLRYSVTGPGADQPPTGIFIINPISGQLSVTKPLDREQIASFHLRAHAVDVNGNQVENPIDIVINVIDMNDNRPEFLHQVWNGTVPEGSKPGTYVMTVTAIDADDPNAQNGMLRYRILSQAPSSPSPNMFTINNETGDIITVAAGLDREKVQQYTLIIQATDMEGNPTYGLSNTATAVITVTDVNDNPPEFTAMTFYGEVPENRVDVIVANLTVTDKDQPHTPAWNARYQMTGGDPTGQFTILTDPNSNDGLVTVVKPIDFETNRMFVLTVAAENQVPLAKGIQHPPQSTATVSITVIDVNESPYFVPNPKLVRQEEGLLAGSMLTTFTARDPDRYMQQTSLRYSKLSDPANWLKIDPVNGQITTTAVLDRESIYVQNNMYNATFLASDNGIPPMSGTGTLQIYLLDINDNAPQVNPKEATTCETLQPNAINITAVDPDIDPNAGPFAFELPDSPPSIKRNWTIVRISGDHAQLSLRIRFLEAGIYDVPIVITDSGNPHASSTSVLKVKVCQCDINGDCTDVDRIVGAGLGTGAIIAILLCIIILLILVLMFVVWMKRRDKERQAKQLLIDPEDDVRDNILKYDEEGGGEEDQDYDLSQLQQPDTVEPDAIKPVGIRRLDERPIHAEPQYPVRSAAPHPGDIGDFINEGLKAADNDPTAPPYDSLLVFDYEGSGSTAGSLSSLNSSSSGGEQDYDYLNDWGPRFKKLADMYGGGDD
metric: effect of a mutation on the interaction

# annotated cases, reported effect of a mutation on the interaction shown
INSERT INTO assay_data (sequence_variant, metric, val) VALUES
  ('Y66F;Y152F;Y153F', 'effect of a mutation on the interaction', 'decreasing interaction'),
  ('Y66F;Y153F', 'effect of a mutation on the interaction', 'increasing interaction'),
  ('C215S', 'effect of a mutation on the interaction', 'increasing interaction'),
  ('Y66F', 'effect of a mutation on the interaction', 'increasing interaction');

Query: effect of a mutation on the interaction; subject: Y152F
decreasing interaction

Another variant: Y153F
increasing interaction

Another variant: Y66F;Y152F
decreasing interaction
